Value source: PubChem BioAssay (NCI)

Test system: UACC-62 melanoma
procedure-details: NCI tumour cell line growth inhibition, 48 h
Property: TGI; scope: individual compounds

Cc1sc2ccccc2[n+]1CCC(=O)O ... > 100 µM
COc1ccc(C(=O)N2c3ccccc3Sc3ccccc32)c(C(F)(F)F)c1 ... > 100 µM
C/C(=N\NC(N)=S)c1nc2ccc(Cl)cc2[nH]1 ... 33.8 µM
Cc1cc(C)n(CN(Cn2nc(C)cc2C)C2CCCCC2)n1 ... 41.7 µM
C[C@]12CC[C@@H]3c4ccc(O)cc4C(O)C[C@H]3[C@@H]1CCC2=O (stereo partly specified) ... > 100 µM

Next item in the queue.
Looking up `Cc1ccc(S(=O)(=O)c2c(O)c3ccccc3n(C)c2=O)cc1` , I see its TGI listed as > 100 µM

====

System: HOP-62 NSCLC
procedure-details: NCI tumour cell line growth inhibition, 48 h
Property: TGI; scope: individual compounds

Observe how each entry below is paired with its result.
Cn1c(=O)c2c(ncn2CN2CCN(Cn3cnc4c3c(=O)n(C)c(=O)n4C)CC2)n(C)c1=O ... > 100 µM
Cc1ccc(SC(=O)N2C(=S)NC(=NC3CCCCC3)C23CCCCC3)cc1 ... > 100 µM
O=[N+]([O-])c1nccn1COCCBr ... > 100 µM
C[C@]12CC[C@@H]3c4ccc(OC(=O)c5ccccc5)cc4CC[C@H]3[C@@H]1CC[C@@H]2Oc1c2ccccc2nc2ccccc12 ... 15.7 µM
O=c1ccc(=O)c2c(=O)c3ccccc3c(=O)c1=2 ... > 100 µM

The measured TGI that `CCN(CC)CCNc1n[n+]([O-])c2ccccc2[n+]1[O-]` showed for HOP-62 NSCLC is 20 µM

The measured TGI that Cc1ccc2c(c1)C(c1cccc3ccccc13)OC2=O (stereo unspecified) showed for HOP-62 NSCLC is 81.7 µM

The measured TGI that `Nc1nc(CCC(=O)Nc2cccc(C(F)(F)F)c2)cc(-c2ccc3ccccc3c2)n1` showed for HOP-62 NSCLC is > 100 µM

The measured TGI that `NNc1nncn1N` showed for HOP-62 NSCLC is > 100 µM

The measured TGI that `COc1ccc(C(=O)N2c3ccccc3Sc3ccccc32)c(C(F)(F)F)c1` showed for HOP-62 NSCLC is > 100 µM

The measured TGI that `C=CC[C@@]1(C(=O)OC)[C@H](Sc2ccccc2)C1(C)C` showed for HOP-62 NSCLC is > 100 µM

The measured TGI that `CSC1=NS(=O)(=O)c2cc(C(=O)NN(C)C(=O)c3cc4c(cc3Cl)SC(SC)=NS4(=O)=O)c(Cl)cc2S1` showed for HOP-62 NSCLC is > 10 µM

The measured TGI that `O=C(N[C@H]1c2ccsc2/C(=N/O)[C@H]1O)C(F)(F)F` showed for HOP-62 NSCLC is > 100 µM

The measured TGI that `Cc1cc(C)n(CN(Cn2nc(C)cc2C)C2CCCCC2)n1` showed for HOP-62 NSCLC is 69.6 µM

The measured TGI that `COc1cc(/C=C2/N=C(c3ccccc3)N(C3=NNC4(C(=O)N3)c3ccccc3-c3ccccc34)NC2=O)ccc1O` showed for HOP-62 NSCLC is 56.2 µg/mL

The measured TGI that `COc1cccc(-c2cc(=O)c3ccc(C)nc3[nH]2)c1` showed for HOP-62 NSCLC is > 64.6 µM
